Target: interaction between p53 and MDM2 proteins (recombinant GST-tagged MDM2 / p53-peptide) (Homo sapiens, UniProt Q00987)
Sequence (Q00987 whole entry): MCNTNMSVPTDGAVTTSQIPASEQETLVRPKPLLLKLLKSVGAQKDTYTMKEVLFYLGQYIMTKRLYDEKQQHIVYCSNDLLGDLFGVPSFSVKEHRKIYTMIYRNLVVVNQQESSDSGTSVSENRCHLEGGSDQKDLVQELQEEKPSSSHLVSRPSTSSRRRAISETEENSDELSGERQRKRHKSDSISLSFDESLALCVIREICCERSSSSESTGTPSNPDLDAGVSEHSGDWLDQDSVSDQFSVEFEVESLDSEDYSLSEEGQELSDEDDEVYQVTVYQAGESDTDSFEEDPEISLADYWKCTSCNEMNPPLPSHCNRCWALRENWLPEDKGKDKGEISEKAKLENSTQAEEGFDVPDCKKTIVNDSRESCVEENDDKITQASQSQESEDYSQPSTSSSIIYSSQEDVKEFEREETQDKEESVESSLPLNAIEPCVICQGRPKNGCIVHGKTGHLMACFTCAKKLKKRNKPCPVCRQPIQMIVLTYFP
Test: HTRF assay of inhibition of the p53-MDM2 interaction (GST-MDM2 binding to biotinylated p53 peptide)
Details: 90 nM biotinylated p53 peptide, 160 ng/ml GST-MDM2, 37° C. 1 h
pIC50: −log10 of the molar value.
# key: entry, value: pIC50

compound: O=C(O)c1cccc(S(=O)(=O)N2c3cccc(=O)n3[C@@H](c3ccc(Cl)cc3)[C@H]2c2ccc(Cl)cc2)c1 (racemic)
pIC50: 6.11
//
compound: COC(=O)c1cccc(S(=O)(=O)N2c3ccc(C(=O)N4CCN(CCn5ccnc5)CC4)c(=O)n3[C@@H](c3ccc(Cl)cc3)[C@H]2c2ccc(Cl)cc2)c1 (racemic)
pIC50: 6.17
//
compound: O=c1cccc2n1[C@@H](c1ccc(Cl)cc1)[C@@H](c1ccc(Cl)cc1)N2S(=O)(=O)c1ccsc1 (racemic)
pIC50: 6.15
//
compound: N#Cc1cccc(S(=O)(=O)N2c3ccc(C(=O)N4CCOCC4)c(=O)n3[C@H](c3ccc(Cl)cc3)[C@@H]2c2ccc(Cl)cc2)c1 (single isomer, unassigned)
pIC50: 6.16
//
compound: COC(=O)c1cccc(S(=O)(=O)N2c3ccc(C(=O)N4CCN(C)CC4)c(=O)n3[C@@H](c3ccc(Cl)cc3)[C@H]2c2ccc(Cl)cc2)c1 (racemic)
pIC50: 6.34
//
compound: N#Cc1cc(S(=O)(=O)N2c3cccc(=O)n3[C@@H](c3ccc(Cl)cc3)[C@H]2c2ccc(Cl)cc2)ccc1F (single isomer, unassigned) [Example 84]
pIC50: 6.30
